# assay-overview: folding stability dG unfold from trypsin proteolysis; higher = more stable
attribute-measured: folding stability dG unfold (kcal/mol)
Answers are plain numbers, in kcal/mol.

{"sequence-text": "SAVITYPIPDDKPTLILEPLPGSESLLILSTKREKIPNGTYKVEALVVRYEPALGASVEEKVELIEPIGSAG [r14_591_JUSTAS]", "unit-text": "kcal/mol", "reported": -0.819}
{"sequence-text": "SAGGGPAKEVPILALIKARNPETGEEYELPIVITANSKEDVEAAKGLVDTLAEALRELGFTEVEVEIGSAGG [r13_360_TrMRF]", "unit-text": "kcal/mol", "reported": 2.97}
{"sequence-text": "SAGGSAGGSAGMTFVITDKNGKETTISLEEAAKLLGIPVEEITEEELKEFLEKKVKTIEKISSAGGSAGGSA [r18_403_JUSTAS]", "unit-text": "kcal/mol", "reported": 0.898}

Here is another sequence to look at.
Could you tell me which folding stability dG unfold is on file for SMVVIEVEPNPETNSLTAKVYLPKDGKKVVEIERSPDGTVKVTVYYKDGSKEEFTFPEDIPIEEAIKKAISA [r9_346_TrMRF] ?
1.16
